system-under-test: T1, human EphA5 (Homo sapiens, UniProt P54756)
T1 construct: a protein of the extracellular region of each human Eph receptor fused with the SEAP protein and the His tag; made in house; host or cells: Expi293F cells (culture supernatant)
T1 sequence (P54756 25-573 limits assumed): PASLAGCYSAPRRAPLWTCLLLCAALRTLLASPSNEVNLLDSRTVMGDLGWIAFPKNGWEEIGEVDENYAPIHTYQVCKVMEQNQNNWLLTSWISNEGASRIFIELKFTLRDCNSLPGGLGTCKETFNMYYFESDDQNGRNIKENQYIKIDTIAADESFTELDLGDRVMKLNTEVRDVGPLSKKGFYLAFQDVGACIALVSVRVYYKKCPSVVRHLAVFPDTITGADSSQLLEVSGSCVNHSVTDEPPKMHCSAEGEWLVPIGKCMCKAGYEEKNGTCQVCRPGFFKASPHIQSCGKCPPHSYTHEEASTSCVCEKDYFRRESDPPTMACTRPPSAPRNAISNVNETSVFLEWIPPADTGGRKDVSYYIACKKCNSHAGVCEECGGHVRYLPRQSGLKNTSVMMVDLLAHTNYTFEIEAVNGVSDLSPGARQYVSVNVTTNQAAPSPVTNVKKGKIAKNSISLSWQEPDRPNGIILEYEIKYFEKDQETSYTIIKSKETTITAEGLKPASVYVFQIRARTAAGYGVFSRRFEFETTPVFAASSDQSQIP
experiment-description: Selectivity ELISA of humanized antibodies for human Eph receptor
Assay type: binding
particulars: coated protein 1 nM
outcome-measure: hEphA5-SEAP-: absorbance at 450 nm, percentage with respect to hEphA4-SEAP-His as 100% (%)
State just the number; it will be interpreted in %.

molecule="84 (antibody, V domains shown, constant regions without entry; synthetic humanized antibody light chain variable region sequence; synthetic humanized antibody heavy chain variable region sequence) VL: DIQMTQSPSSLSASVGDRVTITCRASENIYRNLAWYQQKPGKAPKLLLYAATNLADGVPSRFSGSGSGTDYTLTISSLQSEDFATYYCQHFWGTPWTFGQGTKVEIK VH: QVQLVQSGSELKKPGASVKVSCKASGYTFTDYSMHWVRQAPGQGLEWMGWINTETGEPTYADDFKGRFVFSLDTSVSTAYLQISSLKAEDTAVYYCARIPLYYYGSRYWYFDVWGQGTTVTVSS" output_unit=% test_result=5.0

Query: Which value of hEphA5-SEAP-: absorbance at 450 nm, percentage with respect to hEphA4-SEAP-His as 100% has been reported for 82 (antibody, V domains shown, constant regions without entry; synthetic humanized antibody light chain variable region sequence; synthetic humanized antibody heavy chain variable region sequence) VL: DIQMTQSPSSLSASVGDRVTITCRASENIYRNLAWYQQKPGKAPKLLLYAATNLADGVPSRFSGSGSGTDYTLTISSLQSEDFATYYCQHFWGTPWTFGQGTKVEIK VH: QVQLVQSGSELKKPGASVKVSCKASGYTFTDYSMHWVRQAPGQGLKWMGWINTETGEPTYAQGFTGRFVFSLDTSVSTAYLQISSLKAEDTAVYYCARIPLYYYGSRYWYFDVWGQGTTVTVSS in the records?
Response: 6.5

Query: # repeat for 67 (antibody, V domains shown, synthetic humanized antibody heavy chain variable region sequence; synthetic humanized antibody light chain variable region sequence) VH: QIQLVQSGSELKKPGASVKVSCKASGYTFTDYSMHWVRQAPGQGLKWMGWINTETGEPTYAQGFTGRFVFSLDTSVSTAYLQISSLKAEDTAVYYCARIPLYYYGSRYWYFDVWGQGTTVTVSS VL: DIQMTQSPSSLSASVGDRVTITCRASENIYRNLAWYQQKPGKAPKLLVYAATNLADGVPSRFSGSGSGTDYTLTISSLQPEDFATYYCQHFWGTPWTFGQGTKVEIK
Response: 4.8

Query: Repeat with 152 (antibody, V domains shown, synthetic humanized antibody heavy chain variable region sequence; synthetic humanized antibody light chain variable region sequence) VH: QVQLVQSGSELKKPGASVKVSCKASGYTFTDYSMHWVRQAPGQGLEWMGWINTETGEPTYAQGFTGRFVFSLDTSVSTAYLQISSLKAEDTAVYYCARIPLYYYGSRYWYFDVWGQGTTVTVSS VL: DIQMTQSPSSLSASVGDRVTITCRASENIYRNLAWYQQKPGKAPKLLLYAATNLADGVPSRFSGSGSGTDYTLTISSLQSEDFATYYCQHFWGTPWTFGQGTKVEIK
Response: 5.8

This collection of values is drawn from patent US10428140B2.
